B1: CPEB3 Ribozyme (parent)
chain: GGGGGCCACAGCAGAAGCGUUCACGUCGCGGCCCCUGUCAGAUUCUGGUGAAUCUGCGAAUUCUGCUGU

# Variants of: B1
# Measurement Description: self-cleavage, relative activity (ratio to wild type); higher = more cleavage; co-transcriptional
Test Readout: self-cleavage
One number for each entry.

Example results:
[
  {
    "Mut": "A59C U67A",
    "self-cleavage": 0.689
  },
  {
    "Mut": "G11U G65U",
    "self-cleavage": 0.68
  },
  {
    "Mut": "A52C C66A",
    "self-cleavage": 0.68
  }
]

Please state, for each entry, its recorded self-cleavage.
1. G37A A42C
2. A13U C34A
3. G30C U61G

0.293
0.704
0.304

For this variant ( G41A A60C ), measured self-cleavage is 0.295
